# assayDetails: Volume of distribution at steady state in iv dosed Beagle dog
# Format: ADME, organism-based, Canis lupus familiaris
# experimentalContext: in vivo, read-out: Vdss
propertyMeasured: Vd (L/kg)
// units = L/kg; emit number, no label

Could you share which Vd value was measured for Cc1c(C#N)cccc1[C@@H](C)Nc1nnc(C)c2cnc(N3CCOCC3)cc12 ?
0.28

* * *

# assayDetails: Volume of distribution at steady state in iv dosed Sprague-Dawley rat by LC-MS/MS analysis
# Format: ADME, organism-based
# experimentalContext: in vivo, read-out: Vdss
propertyMeasured: Vd (L/kg)
// units = L/kg; emit number, no label

Could you share which Vd value was measured for Cc1c(C#N)cccc1[C@@H](C)Nc1nnc(C)c2cnc(N3CCOCC3)cc12 [MRTX-0902] ?
0.28

* * *

# targetUnderTest: von Hippel-Lindau disease tumor suppressor/GTPase KRas (Homo sapiens, UniProt P01116+P40337, G12C)
# Sequence (P01116 whole entry G12C, stated change not applied): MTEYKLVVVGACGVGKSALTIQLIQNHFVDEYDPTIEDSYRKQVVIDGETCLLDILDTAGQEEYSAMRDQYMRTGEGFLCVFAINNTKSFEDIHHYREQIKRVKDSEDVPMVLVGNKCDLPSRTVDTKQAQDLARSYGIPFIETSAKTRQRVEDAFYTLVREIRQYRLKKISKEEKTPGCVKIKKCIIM
# Sequence (P40337 whole entry, stated change not applied): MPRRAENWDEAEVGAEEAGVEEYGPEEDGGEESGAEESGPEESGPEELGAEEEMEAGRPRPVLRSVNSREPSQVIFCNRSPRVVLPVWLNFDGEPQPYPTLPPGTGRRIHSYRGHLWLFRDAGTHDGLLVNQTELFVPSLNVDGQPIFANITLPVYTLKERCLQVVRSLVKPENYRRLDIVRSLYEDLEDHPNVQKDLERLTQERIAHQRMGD
# assayDetails: Protac activity at VHL/KRAS G12C mutant in human NCI-H2030 cells assessed as degradation of KRAS G12C mutant incubated for 24 hrs by immunoblot assay
# Format: cell-based
What DC50 was measured for each of the following?
// units = nM; emit number, no label

Could you share which DC50 value was measured for C=C(F)C(=O)N1CCN(c2nc(OC[C@@H]3CCCN3CCC(=O)NCCC(=O)N[C@H](C(=O)N3C[C@H](O)C[C@H]3C(=O)NCc3ccc(-c4scnc4C)cc3)C(C)(C)C)nc3c2CCN(c2cccc4cccc(Cl)c24)C3)C[C@@H]1CC#N ?
6400

Could you share which DC50 value was measured for C=C(F)C(=O)N1CCN(c2nc(OC[C@@H]3CCCN3CCCCOCCC(=O)N[C@H](C(=O)N3C[C@H](O)C[C@H]3C(=O)NCc3ccc(-c4scnc4C)cc3)C(C)(C)C)nc3c2CCN(c2cccc4cccc(Cl)c24)C3)C[C@@H]1CC#N ?
880

Could you share which DC50 value was measured for C=C(F)C(=O)N1CCN(c2nc(OC[C@@H]3CCCN3CCCOCCC(=O)N[C@H](C(=O)N3C[C@H](O)C[C@H]3C(=O)NCc3ccc(-c4scnc4C)cc3)C(C)(C)C)nc3c2CCN(c2cccc4cccc(Cl)c24)C3)C[C@@H]1CC#N ?
590

* * *

# assayDetails: Clearance in iv dosed CD-1 mouse
# Assay type: ADME, organism-based
# experimentalContext: in vivo
propertyMeasured: clearance (mL/min/kg)
// units = mL/min/kg; emit number, no label

Could you share which clearance value was measured for Cc1c(C#N)cccc1[C@@H](C)Nc1nnc(C)c2cnc(N3CCOCC3)cc12 [MRTX-0902] ?
4.4
